Kindly state log10 of GI50 for each of the entries shown.
Tested on: IGROV-1
Assay: Inhibition of cells growth by colorimetric assay (SRB)
Conditions: Homo sapiens, IGROV-1, 48 h, read-out: IGROV GI50
Note: values are log10 of GI50 expressed in nM.

Solved entries:
CCC(=O)NC1CS[C@@H]2c3c(OC(C)=O)c(C)c4c(c3[C@H](COC1=O)N1C2[C@@H]2N[C@@H](Cc3cc(C)c(OC)c(O)c32)[C@@H]1C#N)OCO4 (some centres unmarked) [compound 33] ... 1.99
COc1ccc2[nH]c3c(c2c1)CCN[C@]31CS[C@@H]2c3c(OC(C)=O)c(C)c4c(c3[C@H](COC1=O)N1C2[C@@H]2N[C@@H](Cc3cc(C)c(OC)c(O)c32)[C@@H]1C#N)OCO4 (some centres unmarked) [compound 60] ... 0.14
COc1cc2c(cc1O)CCN[C@]21CS[C@@H]2c3c(OC(C)=O)c(C)c4c(c3[C@H](CNC1=O)N1C2[C@H]2c3c(cc(C)c(OC)c3O)CC([C@@H]1O)N2C)OCO4 (some centres unmarked) [compound 77] ... 1.76
COc1cc2c(cc1O)CCN[C@]21CS[C@@H]2c3c(OC(C)=O)c(C)c4c(c3[C@H](CNC1=O)N1C2[C@H]2c3c(cc(C)c(OC)c3O)C[C@@H]([C@@H]1C#N)N2C)OCO4 (some centres unmarked) [compound 76] ... 2.29

# next compound below
Ask: If you can, please state the reported log10 of GI50 value of COc1cc2c(cc1O)CCN[C@]21CS[C@@H]2c3c(OC(=O)/C=C/c4ccccc4)c(C)c4c(c3[C@H](COC1=O)N1C2[C@@H]2N[C@@H](Cc3cc(C)c(OC)c(O)c32)[C@@H]1C#N)OCO4 (some centres unmarked) [compound 51] .
Reply: 0.53

----------
Tested on: LoVo-Dox
Experiment: Inhibition of cells growth by colorimetric assay (SRB)
Details: read-out: LOVO-DOX LC50; SRB assay, 48 hours exposure, LOVO-DOX, cell killing
parameter: CC50 (µM)
Give bare numbers, in µM.

Ask: Reported CC50 for COc1c(C)cc2c(c1O)C1C3C4SCC(NC(C)=O)C(=O)OCC(c5c6c(c(C)c(OC(C)=O)c54)OCO6)N3C(C#N)C(C2)N1C(C)=O (stereo not shown) : what is it?
Reply: 14.4

----------
Exercise: for every item that follows, state its recorded GI50.
Tested on: IGROV-1
Assay: Inhibition of cells growth by colorimetric assay (SRB)
Settings: Homo sapiens, IGROV-1, 48 h, read-out: IGROV GI50
Procedure: This form of the assay employs 96 well cell culture microplates of 9 mm diameter (Faircloth, 1988; Mosmann, 1983). Most of the cell lines are obtained from American Type Culture Collection (ATCC) derived from different human cancer types. […] The values for mean +/− SD of data from triplicate wells are calculated. Some parameters for cellular responses can be calculated: GI=growth inhibition, TGI=total growth inhibition (cytostatic effect) and LC=cell killing (cytotoxic effect).
Answer format: value, then unit.

Recorded results for 3 compounds are shown here.
C=CCN1[C@@H]2c3c(cc(C)c(OC)c3O)C[C@H]1[C@H](C#N)N1C2[C@@H]2SC[C@]3(NCCc4cc(OC(=O)OC(C)(C)C)c(OC)cc43)C(=O)OC[C@H]1c1c3c(c(C)c(OC(=O)/C=C/c4ccccc4)c12)OCO3 (stereo partly shown) ... 4220 nM
COc1c(C)cc2c(c1O)[C@H]1N[C@@H](C2)[C@H](O)N2C1[C@@H]1SCC(NC(C)=O)C(=O)OC[C@H]2c2c3c(c(C)c(OC(C)=O)c21)OCO3 (stereo partly shown) ... 1.12 nM
COc1cc2c(cc1O)CCN[C@]21CS[C@@H]2c3c(OC(C)=O)c(C)c4c(c3[C@H](COC1=O)N1C2C2c3c(cc(C)c(OC)c3O)C[C@@H]([C@@H]1C#N)N2C)OCO4 (stereo partly shown) ... 3.32 nM

Give one value of GI50 per listed compound.
1. COc1c(C)cc2c(c1O)[C@H]1N[C@@H](C2)[C@H](O)N2C1[C@@H]1SC[C@]3(NCCc4c3[nH]c3ccccc43)C(=O)OC[C@H]2c2c3c(c(C)c(OC(C)=O)c21)OCO3 (stereo partly shown)
2. C=CCN1[C@@H]2c3c(cc(C)c(OC)c3O)C[C@H]1[C@H](C#N)N1C2[C@@H]2SC[C@]3(NCCc4c3[nH]c3ccc(O)cc43)C(=O)OC[C@H]1c1c3c(c(C)c(OC(C)=O)c12)OCO3 (stereo partly shown)
3. COc1c(C)cc2c(c1O)[C@H]1N[C@@H](C2)[C@H](C#N)N2C1[C@@H]1SC[C@]3(NCCc4c3[nH]c3ccc(C)cc43)C(=O)OC[C@H]2c2c3c(c(C)c(OC(C)=O)c21)OCO3 (stereo partly shown)
4. COc1c(C)cc2c(c1OC(=O)/C=C/c1ccccc1)[C@H]1N[C@@H](C2)[C@H](C#N)N2C1[C@@H]1SCC(NC(=O)C(F)(F)F)C(=O)OC[C@H]2c2c3c(c(C)c(OC(C)=O)c21)OCO3 (stereo partly shown)
5. COc1c(C)cc2c(c1O)[C@H]1N[C@@H](C2)[C@H](C#N)N2C1[C@@H]1SC[C@]3(NCCc4c3[nH]c3ccccc43)C(=O)OC[C@H]2c2c3c(c(C)c(OC(C)=O)c21)OCO3 (stereo partly shown)
6. C=CCN1[C@@H]2c3c(cc(C)c(OC)c3O)C[C@H]1[C@H](C#N)N1C2[C@@H]2SC[C@]3(NCCc4cc(O)c(OC)cc43)C(=O)OC[C@H]1c1c3c(c(C)c(OC(=O)CCCCCCC)c12)OCO3 (stereo partly shown)
7. C=CCN1[C@@H]2c3c(cc(C)c(OC)c3O)C[C@H]1[C@H](C#N)N1C2[C@@H]2SC[C@]3(NCCc4c3[nH]c3ccccc43)C(=O)OC[C@H]1c1c3c(c(C)c(OC(C)=O)c12)OCO3 (stereo partly shown)

Reply:
1: 5.4 nM; 2: 28.8 nM; 3: 2.59 nM; 4: 29.2 nM; 5: 3.01 nM; 6: 2420 nM; 7: 69.2 nM

----------
Could you please report measured log10 GI50 for the items listed next?
System: SK-MEL-28
Test: Inhibition of cells growth by colorimetric assay (SRB)
Details: Homo sapiens, SK-MEL-28, 48 h, read-out: MEL-28 GI50
Use the decimal logarithm of GI50 (nM).

COc1cc2c(cc1O)CCN[C@]21CS[C@@H]2c3c(OC(=O)/C=C/c4ccccc4)c(C)c4c(c3[C@H](COC1=O)N1C2[C@@H]2N[C@@H](Cc3cc(C)c(OC)c(O)c32)[C@@H]1C#N)OCO4 (stereo partly shown) ... 0.43
COc1cc2c(cc1O)CCN[C@]21CS[C@@H]2c3c(OC(C)=O)c(C)c4c(c3[C@H](COC1=O)N1[C@@H]2[C@H]2c3c(cc(C)c(OC)c3O)C[C@@H]([C@@H]1O)N2C)OCO4 [Et-743, ecteinascidin 743, reference compound] ... -0.13
COc1c(C)cc2c(c1O)[C@H]1N[C@@H](C2)[C@H](O)N2C1[C@@H]1SC[C@]3(NCCc4c3[nH]c3ccc(C)cc43)C(=O)OC[C@H]2c2c3c(c(C)c(OC(C)=O)c21)OCO3 (stereo partly shown) ... 0.73
COc1c(C)cc2c(c1O)[C@H]1N[C@@H](C2)[C@H](C#N)N2C1[C@@H]1SC[C@]3(NCCc4c3[nH]c3ccc(C)cc43)C(=O)OC[C@H]2c2c3c(c(C)c(OC(C)=O)c21)OCO3 (stereo partly shown) ... 0.39
C=CCN1[C@@H]2c3c(cc(C)c(OC)c3O)C[C@H]1[C@H](C#N)N1C2[C@@H]2SC[C@]3(NCCc4cc(OC(=O)OC(C)(C)C)c(OC)cc43)C(=O)OC[C@H]1c1c3c(c(C)c(OC(=O)/C=C/c4ccccc4)c12)OCO3 (stereo partly shown) ... 3.94

Respectfully, I request log10 GI50 for each entry included below.
1. C=CCN1[C@@H]2c3c(cc(C)c(OC)c3O)C[C@H]1[C@H](C#N)N1C2[C@@H]2SC[C@]3(NCCc4cc(O)c(OC)cc43)C(=O)OC[C@H]1c1c3c(c(C)c(OC(=O)CCCCCCC)c12)OCO3 (stereo partly shown)
2. COc1c(C)cc2c(c1O)[C@H]1N[C@@H](C2)[C@H](O)N2C1[C@@H]1SC[C@]3(NCCc4c3[nH]c3ccc(O)cc43)C(=O)OC[C@H]2c2c3c(c(C)c(OC(C)=O)c21)OCO3 (stereo partly shown)

Reply:
3.40
0.58

----------
Test system: DU-145
Assay: Inhibition of cells growth by colorimetric assay (SRB)
Settings: Homo sapiens, DU-145, 48 h, read-out: DU145 LC50
# yes = CC50 below 10 µM (exclusive); no = CC50 at/above 10 µM

Check out these entries, answers already filled in.
COc1ccc2[nH]c3c(c2c1)CCN[C@]31CS[C@@H]2c3c(OC(C)=O)c(C)c4c(c3[C@H](COC1=O)N1C2[C@@H]2N[C@@H](Cc3cc(C)c(OC)c(O)c32)[C@@H]1O)OCO4 (stereo partly shown) ... no
COc1cc2c(cc1O)CCN[C@]21CS[C@@H]2c3c(OC(C)=O)c(C)c4c(c3[C@H](COC1=O)N1C2C2c3c(cc(C)c(OC)c3O)C[C@@H]([C@@H]1C#N)N2C)OCO4 (stereo partly shown) ... no
COc1c(C)cc2c(c1O)[C@H]1N[C@@H](C2)[C@H](O)N2C1[C@@H]1SC[C@]3(NCCc4c3[nH]c3ccc(O)cc43)C(=O)OC[C@H]2c2c3c(c(C)c(OC(C)=O)c21)OCO3 (stereo partly shown) ... yes
C=CCN1[C@@H]2c3c(cc(C)c(OC)c3O)C[C@H]1[C@H](C#N)N1C2[C@@H]2SC[C@]3(NCCc4cc(OC(=O)OC(C)(C)C)c(OC)cc43)C(=O)OC[C@H]1c1c3c(c(C)c(OC(C)=O)c12)OCO3 (stereo partly shown) ... no
COc1cc2c(cc1O)CCN[C@]21C[S+]([O-])[C@@H]2c3c(OC(C)=O)c(C)c4c(c3[C@H](COC1=O)N1C2C2c3c(cc(C)c(OC)c3O)C[C@@H]([C@@H]1O)N2C)OCO4 (stereo partly shown) [Et-759B] ... no

Ask: Just wondering, is CC50 of CCCCCCCC(=O)Oc1c(C)c2c(c3c1[C@H]1SC[C@]4(NCCc5cc(O)c(OC)cc54)C(=O)OC[C@@H]3N3C1[C@@H]1N[C@@H](Cc4cc(C)c(OC)c(O)c41)[C@@H]3O)OCO2 (stereo partly shown) below 10 µM?
Reply: no

Ask: Now consider COc1ccc2[nH]c3c(c2c1)CCN[C@]31CS[C@@H]2c3c(OC(C)=O)c(C)c4c(c3[C@H](COC1=O)N1C2[C@@H]2N[C@@H](Cc3cc(C)c(OC)c(O)c32)[C@@H]1C#N)OCO4 (stereo partly shown) .
Reply: yes

Ask: What would you report for COC1=C(C)C(=O)C2=C(C1=O)[C@@H]1C3[C@@H]4SC[C@]5(NCCc6c5[nH]c5ccccc65)C(=O)OC[C@@H](c5c6c(c(C)c(OC(C)=O)c54)OCO6)N3[C@@H](O)[C@H](C2)N1C (stereo partly shown) ?
Reply: yes

Ask: Note, next up: COc1cc2c(cc1O)CCN[C@]21CS[C@@H]2c3c(OC(C)=O)c(C)c4c(c3[C@H](CNC1=O)N1C2[C@H]2c3c(cc(C)c(OC)c3O)C[C@@H]([C@@H]1C#N)N2C)OCO4 (stereo partly shown)
Reply: no

Ask: Similarly, COc1cc2c(cc1O)CCN[C@]21CS[C@@H]2c3c(OC(C)=O)c(C)c4c(c3[C@H](COC1=O)N1C[C@@H]3Cc5cc(C)c(OC)c(O)c5C(C21)N3C)OCO4 (stereo partly shown) ?
Reply: no

Ask: Please answer likewise for C=CCN1[C@@H]2c3c(cc(C)c(OC)c3O)C[C@H]1[C@H](O)N1C2[C@@H]2SCC(NC(C)=O)C(=O)OC[C@H]1c1c3c(c(C)c(OC(C)=O)c12)OCO3 (stereo partly shown)
Reply: yes

Ask: Now consider COc1c(C)cc2c(c1O)[C@H]1N[C@@H](C2)[C@H](C#N)N2C1[C@@H]1SC[C@]3(NCCc4c3[nH]c3ccc(O)cc43)C(=O)OC[C@H]2c2c3c(c(C)c(OC(C)=O)c21)OCO3 (stereo partly shown) .
Reply: yes

Ask: Same lookup for C=CCN1[C@@H]2c3c(cc(C)c(OC)c3O)C[C@H]1[C@H](C#N)N1C2[C@@H]2SC[C@]3(NCCc4cc(OC(=O)OC(C)(C)C)c(OC)cc43)C(=O)OC[C@H]1c1c3c(c(C)c(O)c12)OCO3 (stereo partly shown) , please.
Reply: yes

Ask: Check C=CCN1[C@@H]2c3c(cc(C)c(OC)c3O)C[C@H]1[C@H](C#N)N1C2[C@@H]2SC[C@]3(NCCc4c3[nH]c3ccc(OC)cc43)C(=O)OC[C@H]1c1c3c(c(C)c(OC(C)=O)c12)OCO3 (stereo partly shown) too.
Reply: no

Ask: Can you check C=CCN1[C@@H]2c3c(cc(C)c(OC)c3O)C[C@H]1[C@H](O)N1C2[C@@H]2SC[C@]3(NCCc4cc(O)c(OC)cc43)C(=O)OC[C@H]1c1c3c(c(C)c(OC(C)=O)c12)OCO3 (stereo partly shown) next?
Reply: yes

Ask: Also COc1cc2c(cc1O)CCN[C@]21CS[C@@H]2c3c(OC(=O)/C=C/c4ccccc4)c(C)c4c(c3[C@H](COC1=O)N1C2[C@@H]2N[C@@H](Cc3cc(C)c(OC)c(O)c32)[C@@H]1C#N)OCO4 (stereo partly shown) ?
Reply: no

Ask: // same read-out, input: COc1c(C)cc2c(c1O)[C@H]1N[C@@H](C2)[C@H](C#N)N2C1[C@@H]1SCC(=O)C(=O)OC[C@H]2c2c3c(c(C)c(OC(C)=O)c21)OCO3 (stereo partly shown)
Reply: yes
